target: human SARM1(50-724) (Homo sapiens, UniProt Q6SZW1); construct: 40 nM human SARM1(50-724); test: SARM1 biological assay: HPLC measurement of NAD and NAM peak areas; type: biochemical
Sequence (Q6SZW1 50-724): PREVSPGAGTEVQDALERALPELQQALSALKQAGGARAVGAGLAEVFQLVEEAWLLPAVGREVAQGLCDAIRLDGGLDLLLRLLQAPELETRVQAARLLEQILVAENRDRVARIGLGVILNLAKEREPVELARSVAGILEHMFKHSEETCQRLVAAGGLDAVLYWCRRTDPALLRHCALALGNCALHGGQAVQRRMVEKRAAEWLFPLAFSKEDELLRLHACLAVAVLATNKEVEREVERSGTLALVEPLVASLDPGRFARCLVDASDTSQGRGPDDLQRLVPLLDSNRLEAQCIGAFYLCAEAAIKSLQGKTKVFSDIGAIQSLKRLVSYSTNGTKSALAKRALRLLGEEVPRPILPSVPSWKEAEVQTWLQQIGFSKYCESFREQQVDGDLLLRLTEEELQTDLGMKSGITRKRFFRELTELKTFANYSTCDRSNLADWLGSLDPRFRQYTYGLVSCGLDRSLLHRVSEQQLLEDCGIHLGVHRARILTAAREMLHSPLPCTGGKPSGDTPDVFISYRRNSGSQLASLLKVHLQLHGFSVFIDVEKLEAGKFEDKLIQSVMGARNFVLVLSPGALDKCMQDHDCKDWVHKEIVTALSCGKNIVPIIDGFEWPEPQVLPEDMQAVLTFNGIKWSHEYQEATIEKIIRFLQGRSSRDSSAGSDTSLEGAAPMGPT
result.type: IC50

These solved cases illustrate the format of a correct answer.
> print(dat)
                                   compound  recorded.result
1  F[C@@]1(Cl)C[C@@H]1c1nc(Cc2ccncc2)c[nH]1 (single isomer, unassigned) [Example 39A]           < 1 µM
2  F[C@]1(Cl)C[C@H]1c1nc(Cc2ccncc2)c[nH]1 (single isomer, unassigned) [Example 39D]           < 1 µM
3  CC1(F)CC(c2nc(Cc3ccncc3)c[nH]2)C1 (centres unmarked)           < 1 µM
4  ClC1(Cl)CC(c2nc(Cc3ccncc3)co2)C1 [Example 19B]       1 to 10 µM
5  FC1(F)CC1c1nc(Cc2ccncc2)c[nH]1 (single isomer, unassigned)           < 1 µM
6  OC1(C(F)(F)F)CC(c2nc(Cc3ccncc3)c[nH]2)C1 (centres unmarked)       1 to 10 µM
7  FC1(F)CC(c2nc(Cc3ccncc3)c[nH]2)C1 [Example 15A]           < 1 µM

Pending compound:
Tested on human SARM1(50-724) (Homo sapiens, UniProt Q6SZW1), the item ClC1(Cl)C[C@H]1c1nc(Cc2ccncc2)c[nH]1 (single isomer, unassigned) [Example 33B] showed IC50 equal to < 1 µM
